Give pKi for every item shown.
Scale: negative log10 of molar concentration, which is what pKi denotes.

Give reported pKi for CC(C)(C)c1nc(C2CCC2)cc(N2CCN(CCCOc3ncccn3)CC2)n1.Cl [Example 27, hydrochloride] (human dopamine D3 receptors (Homo sapiens, UniProt P35462))
8.68

Give reported pKi for "CC(C)(C)c1nc(C2CCC2)cc(N2CCN(CCCOc3nccc(O)n3)CC2)n1" (human dopamine D3 receptors (Homo sapiens, UniProt P35462))
8.32

Give reported pKi for "C[C@@H](COc1ccnc(O)n1)CN1CCN(c2cc(C3CCC3)nc(C(C)(C)C)n2)CC1" (human dopamine D3 receptors (Homo sapiens, UniProt P35462))
8.70
